STUDY_SYSTEM: human NPY1 receptors (Homo sapiens, UniProt P25929)
Construct: SK-N-MC cells were purchased from ATCC (Rockville, MD)
PROCEDURE_DETAILS: Assay for Human NPY1 receptor binding activity ([125I]PYY binding to SK-N-MC cells)
TEST_CONTEXT: IC50, [125I]PYY (~50 pM) binding to confluent SK-N-MC cells, 3 hour incubation at room temperature
pIC50: −log10 of the molar value. Structures can show the parent of a compound that is named as a salt.
Respond with Criterion met for pIC50 values of 7 and above, Criterion not met for values below.

CCOc1cccc(C2(N3CCN(c4ccccc4)CC3)CCC(CC)CC2)c1 (stereo not drawn) [Compound 21, dihydrochloride] ... Criterion not met

Let's switch to this compound now.
# check: pIC50 of COCOc1cccc(C2(N3CCN(c4ccccc4)CC3)CCC(C)CC2)c1 (stereo not drawn) [Compound 29, dihydrochloride] is greater than or equal to 7
Criterion met

----------
STUDY_SYSTEM: human NPY1 receptors (Homo sapiens)
Construct: SK-N-MC cells were purchased from ATCC (Rockville, MD)
Sequence (P25929 1-384): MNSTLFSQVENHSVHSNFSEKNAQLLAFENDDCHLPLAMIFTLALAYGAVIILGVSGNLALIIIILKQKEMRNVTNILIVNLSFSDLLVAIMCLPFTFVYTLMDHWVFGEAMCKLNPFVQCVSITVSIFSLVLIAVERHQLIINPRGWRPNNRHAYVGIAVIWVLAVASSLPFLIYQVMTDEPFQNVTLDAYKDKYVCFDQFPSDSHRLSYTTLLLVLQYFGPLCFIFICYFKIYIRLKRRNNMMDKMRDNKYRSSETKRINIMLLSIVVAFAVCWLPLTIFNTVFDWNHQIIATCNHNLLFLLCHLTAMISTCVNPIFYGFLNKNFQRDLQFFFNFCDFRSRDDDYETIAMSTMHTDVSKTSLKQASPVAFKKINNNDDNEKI
PROCEDURE_DETAILS: Assay for Human NPY1 receptor binding activity ([125I]PYY binding to SK-N-MC cells)
TEST_CONTEXT: IC50, [125I]PYY (~50 pM) binding to confluent SK-N-MC cells, 3 hour incubation at room temperature
Structures can show the parent of a compound that is named as a salt.
MEASURED_PARAMETER: pIC50
Scale: negative log10 of molar concentration, which is what pIC50 denotes.

Answered cases to consult:
CCOc1cccc(C2(N3CCN(c4ccccc4)CC3)CCC(CC)CC2)c1 (stereo not shown) [Compound 20, dihydrochloride] ... 7.12
COc1cccc(C2(N3CCN(c4ccccc4)CC3)CCC(C)CC2)c1 (stereo not shown) [Compound 13, dihydrochloride] ... 7.17
CCOc1cccc(C2(N3CCN(c4ccccc4)CC3)CCCCC2)c1 [Compound 9, dihydrochloride] ... 6.86

Attention now turns to another entry.
Data point: CCOc1cccc(C2(N3CCN(c4ccccc4)CC3)CCC(C)CC2)c1 (stereo not shown) [Compound 18, dihydrochloride] ; pIC50 = 7.12
